# System: Echinochloa crus-galli (ECHCG)
# experimental protocol: Example B post-emergence herbicidal greenhouse test
# Type: in vivo
# experimental parameters: 360 h, evaluated after 15 days, 100=total damage to plant, 0=no damage
recorded endpoint: pest or weed control at 125 g/ha (%)
The reply should contain only the number, in %.

Indicate its recorded pest or weed control at 125 g/ha; the molecule in question is CCc1ccc(-c2ccc(Cl)c(Cl)c2)cc1C1=C(O)[C@H]2CC[C@H](C2)C1=O (single isomer, unassigned)
80

Indicate its recorded pest or weed control at 125 g/ha; the molecule in question is Cc1cc(-c2ccc(C)c(C3=C(O)[C@H]4CC[C@H](C4)C3=O)c2)ccc1Cl (single isomer, unassigned)
30

Indicate its recorded pest or weed control at 125 g/ha; the molecule in question is Cc1ccc(-c2ccc(Cl)cc2Cl)cc1C1=C(O)[C@H]2CC[C@H](C2)C1=O (single isomer, unassigned)
70

Indicate its recorded pest or weed control at 125 g/ha; the molecule in question is CC(=O)OC1=C(c2c(C)cc(-c3ccccc3)cc2C)C(=O)[C@@H]2CC[C@H]1C2 [Compound P1]
60

Indicate its recorded pest or weed control at 125 g/ha; the molecule in question is CCc1ccc(-c2ccc(Cl)cc2)cc1C1=C(O)[C@H]2CC[C@H](CC2)C1=O
100

Indicate its recorded pest or weed control at 125 g/ha; the molecule in question is CCc1ccc(-c2ccc(Cl)c(F)c2)cc1C1=C(O)[C@H]2CC[C@H](C2)C1=O (single isomer, unassigned)
100

Indicate its recorded pest or weed control at 125 g/ha; the molecule in question is Cc1ccc(-c2ccc(Cl)cc2C)cc1C1=C(O)[C@H]2CC[C@H](C2)C1=O (single isomer, unassigned)
60

Indicate its recorded pest or weed control at 125 g/ha; the molecule in question is CCc1ccc(-c2ccc(Cl)c(C#N)c2)cc1C1=C(O)[C@H]2CC[C@H](C2)C1=O (single isomer, unassigned)
80

Indicate its recorded pest or weed control at 125 g/ha; the molecule in question is Cc1ccc(-c2ccc(Cl)c(F)c2)cc1C1=C(O)[C@H]2CC[C@H](C2)C1=O (single isomer, unassigned)
70

Indicate its recorded pest or weed control at 125 g/ha; the molecule in question is CCc1ccc(-c2ccc(Cl)cc2F)cc1C1=C(O)[C@H]2CC[C@H](C2)C1=O (single isomer, unassigned)
100

Indicate its recorded pest or weed control at 125 g/ha; the molecule in question is Cc1ccc(-c2ccc(F)c(Cl)c2)cc1C1=C(O)[C@H]2CC[C@H](C2)C1=O (single isomer, unassigned)
50

Indicate its recorded pest or weed control at 125 g/ha; the molecule in question is Cc1ccc(-c2ccc(Cl)cc2)cc1C1=C(O)[C@H]2CC[C@H](C2)C1=O
90

Indicate its recorded pest or weed control at 125 g/ha; the molecule in question is Cc1ccc(-c2cc(Cl)cc(Cl)c2)cc1C1=C(O)[C@H]2CC[C@H](C2)C1=O (single isomer, unassigned)
0

Indicate its recorded pest or weed control at 125 g/ha; the molecule in question is CCc1cc(-c2ccc(C)cc2)cc(CC)c1C1=C(O)[C@H]2CC[C@H](C2)C1=O
50

Indicate its recorded pest or weed control at 125 g/ha; the molecule in question is CCc1ccc(-c2ccc(C)cc2)cc1C1=C(O)[C@H]2CC[C@H](C2)C1=O
80

Indicate its recorded pest or weed control at 125 g/ha; the molecule in question is Cc1ccc(-c2ccc(Cl)cc2F)cc1C1=C(O)[C@H]2CC[C@H](C2)C1=O (single isomer, unassigned)
80

Indicate its recorded pest or weed control at 125 g/ha; the molecule in question is Cc1ccc(-c2ccc(Cl)c(C(F)(F)F)c2)cc1C1=C(O)[C@H]2CC[C@H](C2)C1=O (single isomer, unassigned)
0

Indicate its recorded pest or weed control at 125 g/ha; the molecule in question is CCc1ccc(-c2ccc(Cl)c(C)c2)cc1C1=C(O)[C@H]2CC[C@H](C2)C1=O
100

Indicate its recorded pest or weed control at 125 g/ha; the molecule in question is CCc1cc(-c2ccc(Cl)cc2)ccc1C1=C(OC(C)=O)[C@@H]2CC[C@@H](C2)C1=O
80

Indicate its recorded pest or weed control at 125 g/ha; the molecule in question is Cc1cc(-c2ccc(Cl)cc2)ccc1C1=C(O)[C@H]2CC[C@H](C2)C1=O
80

Indicate its recorded pest or weed control at 125 g/ha; the molecule in question is CCc1ccc(-c2ccc(Cl)cc2Cl)cc1C1=C(OC(=O)OC)[C@H]2CC[C@H](C2)C1=O (single isomer, unassigned)
100

Indicate its recorded pest or weed control at 125 g/ha; the molecule in question is CCc1ccc(-c2ccc(F)cc2)cc1C1=C(O)[C@H]2CC[C@H](C2)C1=O
90

Indicate its recorded pest or weed control at 125 g/ha; the molecule in question is CCc1ccc(-c2ccc(F)c(Cl)c2)cc1C1=C(O)[C@H]2CC[C@H](C2)C1=O (single isomer, unassigned)
80

Indicate its recorded pest or weed control at 125 g/ha; the molecule in question is CCc1ccc(-c2ccc(Cl)cc2)cc1C1=C(O)[C@H]2CC[C@H](C2)C1=O
100

Indicate its recorded pest or weed control at 125 g/ha; the molecule in question is Cc1ccc(-c2ccc(Cl)c(C#N)c2)cc1C1=C(O)[C@H]2CC[C@H](C2)C1=O (single isomer, unassigned)
0

Indicate its recorded pest or weed control at 125 g/ha; the molecule in question is COc1ccc(Cl)cc1-c1ccc(C)c(C2=C(O)[C@H]3CC[C@H](C3)C2=O)c1 (single isomer, unassigned)
0

Indicate its recorded pest or weed control at 125 g/ha; the molecule in question is CCc1ccc(-c2ccc(Cl)cc2OC)cc1C1=C(O)[C@H]2CC[C@H](C2)C1=O (single isomer, unassigned)
70

* * *

# Test system: Alopecurus myosuroides (ALOMY)
# experimental protocol: Example B pre-emergence herbicidal greenhouse test
# Type: in vivo
# experimental parameters: 480 h, evaluated after 20 days, 100=total damage to plant, 0=no damage
# Method: Seeds of a variety of test species were sown in standard soil in pots. […] The test plants were then grown in a greenhouse under optimum conditions until, 15 days later for post-emergence and 20 days for pre-emergence, the test was evaluated (100=total damage to plant; 0=no damage to plant). […]
# pest or weed control at 250 g/ha binned as bottom (below 40%), middle (40% to below 70%), top (70% or more)

Which class does CCc1cc(-c2ccc(C)cc2)cc(CC)c1C1=C(O)[C@H]2CC[C@H](C2)C1=O [Compound T63] fall in?
top

Which class does CCc1ccc(-c2ccccc2)cc1C1=C(O)[C@H]2CC[C@H](C2)C1=O (single isomer, unassigned) [Compound T2] fall in?
bottom

Which class does CCc1cc(-c2ccc(Cl)cc2)ccc1C1=C(O)[C@H]2CC[C@H](C2)C1=O [Compound T59] fall in?
top

Which class does CCc1ccc(-c2ccc(F)cc2)cc1C1=C(O)[C@H]2CC[C@H](C2)C1=O [Compound T3] fall in?
middle

Which class does CCc1ccc(-c2ccc(Cl)c(C)c2)cc1C1=C(O)[C@H]2CC[C@H](C2)C1=O [Compound T32] fall in?
top

Which class does Cc1ccc(-c2ccc(Cl)cc2Cl)cc1C1=C(O)[C@H]2CC[C@H](C2)C1=O (single isomer, unassigned) [Compound T12] fall in?
bottom

Which class does Cc1cc(-c2ccccc2)cc(C)c1C1=C(O)[C@H]2CC[C@H](C2)C1=O [Compound T6] fall in?
middle

Which class does CCc1ccc(-c2ccc(Cl)cc2)cc1C1=C(O)[C@H]2C=C[C@H](CC2)C1=O (single isomer, unassigned) [Compound T55] fall in?
bottom

Which class does CCc1ccc(-c2ccc(Cl)cc2F)cc1C1=C(O)[C@H]2CC[C@H](C2)C1=O (single isomer, unassigned) [Compound T41] fall in?
top

Which class does Cc1cc(-c2ccc(Cl)cc2)ccc1C1=C(O)[C@H]2CC[C@H](C2)C1=O [Compound T61] fall in?
top

Which class does Cc1ccc(-c2cccc(Cl)c2)cc1C1=C(O)[C@H]2CC[C@H](C2)C1=O (single isomer, unassigned) [Compound T7] fall in?
bottom

Which class does CCc1cc(-c2ccc(Cl)cc2)cc(CC)c1C1=C(O)[C@H]2CC[C@H](C2)C1=O [Compound T62] fall in?
top

Which class does CCc1ccc(-c2ccc(Cl)cc2Cl)cc1C1=C(O)[C@H]2CC[C@H](C2)C1=O [Compound T44] fall in?
bottom

Which class does CCc1ccc(-c2ccc(Cl)cc2Cl)cc1C1=C(OC(=O)OC)[C@H]2CC[C@H](C2)C1=O (single isomer, unassigned) [Compound P4] fall in?
top

Which class does COc1cc(Cl)ccc1-c1ccc(C)c(C2=C(O)[C@H]3CC[C@H](C3)C2=O)c1 (single isomer, unassigned) [Compound T11] fall in?
bottom

Which class does Cc1cc(-c2ccccc2)cc(C)c1C1=C(OC(=O)C(C)(C)C)C2CCC(C2)C1=O (centres unmarked) [Compound P2] fall in?
bottom

Which class does Cc1ccc(-c2ccc(Cl)c(C(F)(F)F)c2)cc1C1=C(O)[C@H]2CC[C@H](C2)C1=O (single isomer, unassigned) [Compound T8] fall in?
middle
